# procedureDetails: Acute toxicity in mice
# Format: in vivo, mouse
# conditionNotes: mouse, in vivo, po, mice; orally; compound (4); read-out: Toxicity LD50 mice orally
endpointName: LD50 (mg/kg)
All answers are understood in mg/kg, so give the number only.

Data request: Quick one: LD50 for "CN1C[C@H](COC(=O)N2CCOCC2)C[C@@H]2c3cccc4[nH]c(Br)c(c34)C[C@H]21" ?
Data returned: 180

* * *

# procedureDetails: Acute toxicity in mice
# Assay type: in vivo, mouse
# conditionNotes: mouse, in vivo, iv, mice; intravenously; compound (3); read-out: Toxicity LD50 mice, intravenously
endpointName: LD50

Data request: Item under review: "CN1C[C@H](COC(=O)N2CCCCCC2)C[C@@H]2c3cccc4c3c(c(Br)n4C)C[C@H]21" . Reported LD50?
Data returned: 65 to 83 mg/kg

* * *

# procedureDetails: Acute toxicity in mice
# Assay type: in vivo, mouse
# conditionNotes: mouse, in vivo, iv, e.v.; mouse; Table 2; read-out: DL50 e.v. in the mouse
Catalogue of LD50 values
Output spec: scalar in mg/kg, unitless text.

CO[C@]12C[C@@H](COC(=O)c3cncc(Br)c3)CN(C)[C@@H]1Cc1cn(C)c3cccc2c13 [nicergoline, reference compound]	74.3
CN1C[C@H](COC(=O)N2CCC2)C[C@@H]2c3cccc4[nH]c(Br)c(c34)C[C@H]21 [Example 7]	8.7

Okay, next one:
Data request: Give the measured LD50 of CN1CCN(C(=O)OC[C@@H]2C[C@@H]3c4cccc5[nH]c(Br)c(c45)C[C@H]3N(C)C2)CC1 [Example 18] .
Data returned: 27.3

* * *

# procedureDetails: Acute toxicity in mice
# Format: in vivo, mouse
# conditionNotes: mouse, in vivo, iv, e.v.; mouse; Table 2; read-out: DL50 e.v. in the mouse
Quick list: LD50 per entry.

Answered cases to consult:
CN1C[C@H](COC(=O)N2CCOCC2)C[C@@H]2c3cccc4[nH]c(Br)c(c34)C[C@H]21 [Example 16]	20.5 mg/kg
CN1C[C@H](COC(=O)N2CCCC2)C[C@@H]2c3cccc4[nH]c(Br)c(c34)C[C@H]21 [Example 10]	15 mg/kg
CN1C[C@H](COC(=O)N2CCCCC2)C[C@@H]2c3cccc4[nH]c(Br)c(c34)C[C@H]21 [Example 12]	50 mg/kg

Data request: So what does the record say about LD50 for CCN(CC)C(=O)OC[C@@H]1C[C@@H]2c3cccc4[nH]c(Br)c(c34)C[C@H]2N(C)C1 [Example 6] ?
Data returned: 13.7 mg/kg

Data request: Given the entry CN(C)C(=O)OC[C@@H]1C[C@@H]2c3cccc4[nH]c(Br)c(c34)C[C@H]2N(C)C1 [Example 4] , report its measured LD50.
Data returned: 7.1 mg/kg

Data request: # LD50 lookup, item CN1C[C@H](COC(=O)N2CCCCCC2)C[C@@H]2c3cccc4[nH]c(Br)c(c34)C[C@H]21 [Example 2]
Data returned: 39.4 mg/kg

Data request: Entry CN1C[C@H](COC(=O)N2CC3CCC(CC3)C2)C[C@@H]2c3cccc4[nH]c(Br)c(c34)C[C@H]21 [Example 20] has what LD50?
Data returned: 50 mg/kg
